Target: T1, huIL-17RA-FLAG-polyHis (human, UniProt Q96F46 33-320)
T1 construct: also called IL-17RA-FLAG-pHis; wild-type IL-17RA
Assay: binning; IL-17RA held by bead mAb H
Hi there, I'd appreciate the recorded normalized MFI for every entry that follows.

binder	recorded-result
AMH21/AML21 (antibody, IgG2, V domains shown, human mAb from IgG2 XenoMouse mice; also called AM-21; antibody Q) VH: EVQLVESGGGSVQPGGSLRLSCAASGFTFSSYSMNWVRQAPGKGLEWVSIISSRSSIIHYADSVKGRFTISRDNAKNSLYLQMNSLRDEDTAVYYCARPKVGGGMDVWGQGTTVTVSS VL: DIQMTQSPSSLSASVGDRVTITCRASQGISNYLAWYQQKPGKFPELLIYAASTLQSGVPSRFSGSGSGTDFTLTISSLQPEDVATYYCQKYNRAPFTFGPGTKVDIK	10200

Continue with the binder presented below.
q: Would you mind telling me what normalized MFI value was observed for AMH10/AML10 (antibody, IgG2, V domains shown, human mAb from IgG2 XenoMouse mice; also called AM-10; antibody F) VH: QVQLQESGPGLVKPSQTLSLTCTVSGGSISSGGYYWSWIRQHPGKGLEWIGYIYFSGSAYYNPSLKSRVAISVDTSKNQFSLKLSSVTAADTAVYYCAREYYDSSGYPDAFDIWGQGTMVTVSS VL: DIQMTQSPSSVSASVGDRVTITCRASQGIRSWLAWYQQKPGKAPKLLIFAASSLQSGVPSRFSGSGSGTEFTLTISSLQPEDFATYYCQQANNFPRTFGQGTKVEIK ?
a: 3970
